Entries and their selectivity ratio
- assayName: Selectivity ratio of IC50 for African green monkey Vero cells to IC50 for human Calu-1 cells
- Type: toxicity
- conditionDetails: Vero cells / Calu-1 cells, read-out: Ratio IC50

Solved cases below.
| compound | measured |
| --- | --- |
| COc1cc([C@@H]2c3cc4c(cc3[C@H](OC(=O)CCCCC3CCSC(c5ccc(C(F)(F)F)cc5)S3)[C@H]3COC(=O)[C@H]23)OCO4)cc(OC)c1OC (stereo partly drawn) | ≥ 9.7 |
| COc1cc([C@@H]2c3cc4c(cc3[C@H](OC(=O)CCCCC3CCSC(c5cccc(C(F)(F)F)c5)S3)[C@H]3COC(=O)[C@H]23)OCO4)cc(OC)c1OC (stereo partly drawn) | ≥ 9.7 |

Data request: // returns reported selectivity ratio for input COc1cc([C@@H]2c3cc4c(cc3[C@H](OC(=O)CCCCC3CCSC(c5ccc(C)cc5)S3)[C@H]3COC(=O)[C@H]23)OCO4)cc(OC)c1OC (stereo partly drawn)
Data returned: ≥ 9.7

* * *

Entries and their selectivity ratio
- assayName: Selectivity ratio of IC50 for human L02 cells to IC50 for human Calu-1 cells
- Assay type: toxicity
- conditionDetails: L02 cells / Calu-1 cells, read-out: Ratio IC50

Solved cases below.
| molecule | selectivity ratio |
| --- | --- |
| COc1cc([C@@H]2c3cc4c(cc3[C@H](OC(=O)CCCCC3CCSC(c5ccc(C(F)(F)F)cc5)S3)[C@H]3COC(=O)[C@H]23)OCO4)cc(OC)c1OC (stereo partly drawn) | ≥ 9.7 |
| COc1cc([C@@H]2c3cc4c(cc3[C@H](OC(=O)CCCCC3CCSC(c5cccc(C(F)(F)F)c5)S3)[C@H]3COC(=O)[C@H]23)OCO4)cc(OC)c1OC (stereo partly drawn) | ≥ 9.7 |

Data request: // returns reported selectivity ratio for input COc1cc([C@@H]2c3cc4c(cc3[C@H](OC(=O)CCCCC3CCSC(c5ccc(C)cc5)S3)[C@H]3COC(=O)[C@H]23)OCO4)cc(OC)c1OC (stereo partly drawn)
Data returned: ≥ 9.7

* * *

- Tested on: SK-BR-3
- assayName: Antiproliferative activity against human SK-BR-3 cells
- Type: functional, cell-based
measuredParameter: pIC50
// pIC50: -log10(molar conc.)

Data request: // returns reported pIC50 for input `COC(=O)c1ccc(-c2cn(CC(=O)O[C@H]3c4cc5c(cc4[C@@H](c4cc(OC)c(OC)c(OC)c4)[C@H]4C(=O)OC[C@@H]43)OCO5)nn2)cc1`
Data returned: 7.71

* * *

- System: BGC-823
- assayName: Antiproliferative activity against human BGC-823 cells incubated for 48 hrs by MTT assay
- Format: functional, cell-based
- conditionDetails: BGC-823, 48 h
measuredParameter: IC50 (nM)
Only the number, expressed in nM, is required.

| compound | measuredParameter | measured |
| --- | --- | --- |
| COc1cc([C@@H]2c3cc4c(cc3[C@@H](Nc3ncccc3C)[C@H]3COC(=O)[C@H]23)OCO4)cc(OC)c1OC | IC50 | 60 |
| COc1cc([C@@H]2c3cc4c(cc3[C@H](O)[C@H]3COC(=O)[C@H]23)OCO4)cc(OC)c1OC | IC50 | 4310 |
| COc1cc([C@@H]2c3cc4c(cc3[C@@H](Nc3ncccc3F)[C@H]3COC(=O)[C@H]23)OCO4)cc(OC)c1OC | IC50 | 60 |
| COc1cc([C@@H]2c3cc4c(cc3[C@@H](O[C@@H]3O[C@@H]5CO[C@@H](C)O[C@H]5[C@H](O)[C@H]3O)[C@H]3COC(=O)[C@H]23)OCO4)cc(OC)c1O [ETOPOSIDE] | IC50 | 1060 |
| COc1cc([C@@H]2c3cc4c(cc3[C@@H](Sc3ncnc5nc[nH]c35)[C@H]3COC(=O)[C@H]23)OCO4)cc(OC)c1OC | IC50 | 300 |

Now, please, on to the next compound.
Data request: Find IC50 (BGC-823) for the entry `COc1cc([C@@H]2c3cc4c(cc3[C@@H](Nc3ncccc3C)[C@H]3COC(=O)[C@H]23)OCO4)cc(OC)c1O`
Data returned: 60

* * *

- Tested on: SK-OV-3
- assayName: Antiproliferative activity against human SKOV3 cells incubated for 48 hrs by MTT assay
- Assay type: functional, cell-based
- conditionDetails: SK-OV-3, 48 h
Entries and their pIC50
// pIC50: -log10(molar conc.)

| compound | targetEntity | measured |
| --- | --- | --- |
| COc1cc([C@@H]2c3cc4c(cc3[C@@H](O[C@@H]3O[C@@H]5CO[C@@H](C)O[C@H]5[C@H](O)[C@H]3O)[C@H]3COC(=O)[C@H]23)OCO4)cc(OC)c1O [ETOPOSIDE] | SK-OV-3 | 4.83 |

Data request: // returns reported pIC50 for input `COc1cc(C(=O)/C=C/c2ccc(F)cc2)ccc1OCc1cn([C@@H]2c3cc4c(cc3[C@@H](c3cc(OC)c(OC)c(OC)c3)[C@H]3C(=O)OC[C@@H]32)OCO4)nn1`
Data returned: 6.28

* * *

- Tested on: K562/Adr
- assayName: Antiproliferative activity against human K562/ADR cells incubated for 72 hrs by CCK8 assay
- Type: functional, cell-based
measuredParameter: pIC50
// pIC50: -log10(molar conc.)

| compound | pIC50 |
| --- | --- |
| COc1cc([C@@H]2c3cc4c(cc3[C@H](OCC(=O)N3C(=O)C(=O)c5ccc(Cl)cc53)[C@H]3COC(=O)[C@H]23)OCO4)cc(OC)c1OC | 7.72 |
| COc1cc([C@@H]2c3cc4c(cc3[C@H](OCC(=O)N3C(=O)C(=O)c5c(Br)cccc53)[C@H]3COC(=O)[C@H]23)OCO4)cc(OC)c1OC | 7.72 |

Data request: // returns reported pIC50 for input COc1cc([C@@H]2c3cc4c(cc3[C@@H](O[C@@H]3O[C@@H]5CO[C@@H](C)O[C@H]5[C@H](O)[C@H]3O)[C@H]3COC(=O)[C@H]23)OCO4)cc(OC)c1O [ETOPOSIDE]
Data returned: 6.38

* * *

- assayName: Plasma clearance in Sprague-Dawley rat at 2.5 mg/kg, iv measured after 5 to 1440 mins by LC-MS/MS analysis
- Assay type: ADME, organism-based
- Set-up: dose 2.5 mg/kg, time upper 1440 min, time lower 5 min
- conditionDetails: time 5-1440 min, dose 2.5 mg/kg
measuredParameter: clearance
Please report the result as a number followed by the unit.

Data request: // returns reported clearance for input `COc1cc([C@@H]2c3cc4c(cc3[C@@H](NCC(F)(F)[C@]3(O)O[C@H](CO)[C@@H](O)[C@H](O)[C@H]3O)[C@H]3COC(=O)[C@H]23)OCO4)cc(OC)c1OC`
Data returned: 19 mL/min/kg

* * *

- assayName: Selectivity index, ratio of CC50 for human BEAS2B cells to IC50 for human MCF7 cells
- Type: toxicity
- conditionDetails: read-out: Ratio CC50/IC50
measuredParameter: selectivity ratio
Output spec: single numeric token, no unit.

Data request: // returns reported selectivity ratio for input CCCC(=O)OC[C@H]1O[C@@H](OC(COCc2cn([C@@H]3c4cc5c(cc4[C@@H](c4cc(OC)c(OC)c(OC)c4)[C@H]4C(=O)OC[C@@H]43)OCO5)nn2)COCc2cn([C@@H]3c4cc5c(cc4[C@@H](c4cc(OC)c(OC)c(OC)c4)[C@H]4C(=O)OC[C@@H]43)OCO5)nn2)[C@H](OC(=O)CCC)[C@@H](OC(=O)CCC)[C@@H]1OC(=O)CCC (stereo partly specified)
Data returned: 4.3

* * *

- assayName: AUCinfinity in Sprague-Dawley rat at 2.5 mg/kg, iv measured after 5 to 1440 mins by LC-MS/MS analysis
- Assay type: ADME, organism-based
- Design: route intravenous, dose 2.5 mg/kg, time upper 1440 min, time lower 5 min
- conditionDetails: in vivo, time 5-1440 min, dose 2.5 mg/kg
measuredParameter: AUC (ng·h/mL)
Only the number, expressed in ng·h/mL, is required.

Data request: // returns reported AUC for input COc1cc([C@@H]2c3cc4c(cc3[C@@H](O[C@@H]3O[C@@H]5CO[C@@H](C)O[C@H]5[C@H](O)[C@H]3O)[C@H]3COC(=O)[C@H]23)OCO4)cc(OC)c1O [ETOPOSIDE]
Data returned: 3180

* * *

Entries and their IC50
- Tested on: K562/A02
- assayName: Cytotoxicity against human K562/A02 cells by MTT assay
- Type: functional, cell-based
Only the number, expressed in nM, is required.

| lineNotation | measured |
| --- | --- |
| COc1cc([C@@H]2c3cc4c(cc3[C@@H](c3c[nH]c5ccc(OCc6ccc(C(C)(C)C)cc6)cc35)[C@H]3COC(=O)[C@H]23)OCO4)cc(OC)c1OC | 289 |

Now, please, on to the next compound.
Data request: // returns reported IC50 for input `COc1cc([C@@H]2c3cc4c(cc3[C@@H](NC(=O)C(=O)c3c[nH]c5ccc(C(=O)NC(C)C)cc35)[C@H]3COC(=O)[C@H]23)OCO4)cc(OC)c1OC`
Data returned: 1270

The origin of these recorded values is ChEMBL document CHEMBL4818987.
